system: RAW-Dual (murine macrophage reporter line); assay: IRF reporter (Lucia luciferase) activity fold change vs agonist alone; higher = enhanced IRF activity; details: modulator concentration 10 µM; agonist: MPLA […]
parameter.measured: IRF reporter

{"compound": "Cc1ccc(CSCCNC(=O)CN(c2cccc(C)c2)S(C)(=O)=O)cc1", "observed": 1.15}
{"compound": "O=c1ccc2ccc(OCCCCN3CCN(c4cccc5sccc45)CC3)cc2[nH]1", "observed": 1.15}
{"compound": "O=C(Cn1nc(S(=O)(=O)c2cccc(F)c2)ccc1=O)N1CCc2ccccc2C1", "observed": 1.14}
{"compound": "CCC(C)(C)C(=O)O[C@H]1C[C@@H](C)C=C2C=C[C@H](C)[C@H](CC[C@@H]3C[C@@H](O)CC(=O)O3)[C@H]21", "observed": 0.639}
{"compound": "Cc1c(NC(=S)NC(=O)c2ccccc2[N+](=O)[O-])cccc1-c1nc2ccccc2o1", "observed": 1.07}
{"compound": "COc1ccc(Cl)cc1C(=O)Nc1ccc(NC(=O)c2ccccc2)cc1", "observed": 1.09}
{"compound": "COC(CNS(=O)(=O)c1ccccc1Cl)c1cccc(F)c1 (stereo not given)", "observed": 0.736}
{"compound": "NC(=O)OCC(COC(N)=O)c1ccccc1", "observed": 0.94}
{"compound": "CCOc1ccccc1OCCCCOc1cccc(Br)c1", "observed": 1.2}
{"compound": "COc1cc(C2Oc3cc(C4Oc5cc(O)cc(O)c5C(=O)C4O)ccc3OC2CO)ccc1O (stereo not given)", "observed": 1}

###

tested on: RAW-Dual (murine macrophage reporter line); test: viability score (confluency relative to resting cells, overnight) (fraction); higher = more viable, active = viable (0.7 or more); details: modulator concentration 10 µM
Labels: TRUE (active), FALSE (inactive)

{"compound": "COc1cc(C=Nc2ccc3oc(-c4ccc(C(C)(C)C)cc4)nc3c2)ccc1OC(=O)c1ccc(Cl)cc1Cl", "system.name": "RAW-Dual (murine macrophage reporter line)", "classification": "TRUE"}
{"compound": "O=C(COc1ccc2ccccc2c1)NCC#CCN1CCCCC1", "system.name": "RAW-Dual (murine macrophage reporter line)", "classification": "TRUE"}
{"compound": "CNC1CCCN(c2c(F)cc3c(=O)c(C(=O)O)cn(C4CC4)c3c2OC)C1 (stereo not given)", "system.name": "RAW-Dual (murine macrophage reporter line)", "classification": "TRUE"}
{"compound": "Cc1ccc(C(=O)NC(Oc2ccc3ccccc3c2)C(Br)(Br)Br)cc1 (stereo not given)", "system.name": "RAW-Dual (murine macrophage reporter line)", "classification": "TRUE"}
{"compound": "Cc1cc(OCC(O)CN2CCCCC2C)cc(C)c1Cl.Cl (stereo not given)", "system.name": "RAW-Dual (murine macrophage reporter line)", "classification": "TRUE"}
{"compound": "CN1CCN(c2nc(C3=C(c4c[nH]c5ccccc45)C(=O)NC3=O)c3ccccc3n2)CC1", "system.name": "RAW-Dual (murine macrophage reporter line)", "classification": "TRUE"}
{"compound": "O=c1ccc2cc(O)c(O)cc2o1", "system.name": "RAW-Dual (murine macrophage reporter line)", "classification": "TRUE"}
{"compound": "CC1=NN(c2ccc(S(N)(=O)=O)cc2)C(=O)C1=Cc1ccc(C)s1", "system.name": "RAW-Dual (murine macrophage reporter line)", "classification": "TRUE"}
{"compound": "CC(Oc1ccccc1)C(=O)NC1CC(C)(C)NC(C)(C)C1 (stereo not given)", "system.name": "RAW-Dual (murine macrophage reporter line)", "classification": "TRUE"}
{"compound": "COC(=O)C1=C(C)NC(C)=C(C(=O)OCCN2CCN(C(c3ccccc3)c3ccccc3)CC2)C1c1cccc([N+](=O)[O-])c1.Cl.Cl (stereo not given)", "system.name": "RAW-Dual (murine macrophage reporter line)", "classification": "TRUE"}
{"compound": "Cn1cnc2c(F)c(Nc3ccc(Br)cc3Cl)c(C(=O)NOCCO)cc21", "system.name": "RAW-Dual (murine macrophage reporter line)", "classification": "FALSE"}
{"compound": "O=C(Nc1ccncc1)c1ccc(OCC2CCOCC2)nc1", "system.name": "RAW-Dual (murine macrophage reporter line)", "classification": "TRUE"}
{"compound": "O=C(O)CC(c1ccccc1)N1C(=O)c2ccccc2C1=O (stereo not given)", "system.name": "RAW-Dual (murine macrophage reporter line)", "classification": "TRUE"}
{"compound": "Cc1nc(-c2ccc(S(=O)(=O)N3C4CCC3CC(Oc3cccnc3)C4)cc2)co1 (stereo not given)", "system.name": "RAW-Dual (murine macrophage reporter line)", "classification": "TRUE"}
{"compound": "O=S(=O)(Cc1ccccc1)Nc1ccccn1", "system.name": "RAW-Dual (murine macrophage reporter line)", "classification": "TRUE"}
{"compound": "CC1=C(C(=O)N2CCOCC2)C(c2cccs2)NC(=O)N1 (stereo not given)", "system.name": "RAW-Dual (murine macrophage reporter line)", "classification": "TRUE"}
{"compound": "Cc1cn[nH]c1", "system.name": "RAW-Dual (murine macrophage reporter line)", "classification": "TRUE"}
{"compound": "O=C(Cc1ccccc1)NCC(O)Cn1ccccc1=O (stereo not given)", "system.name": "RAW-Dual (murine macrophage reporter line)", "classification": "TRUE"}
{"compound": "N#Cc1cc(-c2n[nH]c(-c3ccncc3)n2)ccn1", "system.name": "RAW-Dual (murine macrophage reporter line)", "classification": "TRUE"}
{"compound": "COc1ccc(OC)c(Nc2nc(-c3c(C)nc4sccn34)cs2)c1", "system.name": "RAW-Dual (murine macrophage reporter line)", "classification": "TRUE"}
{"compound": "COc1cccc(S(=O)(=O)NCc2sc(-c3ccccc3)nc2C)c1", "system.name": "RAW-Dual (murine macrophage reporter line)", "classification": "TRUE"}
{"compound": "O=c1cc(O)c(Cl)c[nH]1", "system.name": "RAW-Dual (murine macrophage reporter line)", "classification": "TRUE"}
{"compound": "O=C(C=Cc1ccco1)Nc1ccc(C(=O)O)cc1NC(=O)C=Cc1ccco1", "system.name": "RAW-Dual (murine macrophage reporter line)", "classification": "TRUE"}
{"compound": "Nc1nnc(C(=O)O)[nH]1", "system.name": "RAW-Dual (murine macrophage reporter line)", "classification": "TRUE"}
{"compound": "Cc1ccc(C(=O)N2N=C(c3ccncc3)CC2(O)C(F)(F)F)cc1 (stereo not given)", "system.name": "RAW-Dual (murine macrophage reporter line)", "classification": "TRUE"}
{"compound": "O=S(=O)(c1ccc(F)cc1)n1cccc1", "system.name": "RAW-Dual (murine macrophage reporter line)", "classification": "TRUE"}
{"compound": "COc1ccccc1C(=O)Nc1ccc(-c2nc3cc(C)ccc3o2)cc1", "system.name": "RAW-Dual (murine macrophage reporter line)", "classification": "TRUE"}
{"compound": "COC1(CNC(=O)C2CCN(S(C)(=O)=O)CC2)CCSC1 (stereo not given)", "system.name": "RAW-Dual (murine macrophage reporter line)", "classification": "TRUE"}
{"compound": "CN(C)[C@@H]1C(O)=C(C(N)=O)C(=O)[C@@]2(O)C(O)=C3C(=O)c4c(O)ccc(Cl)c4[C@@H](O)[C@H]3C[C@@H]12.Cl", "system.name": "RAW-Dual (murine macrophage reporter line)", "classification": "TRUE"}
{"compound": "Cc1nccn1CC1CCc2c(c3ccccc3n2C)C1=O.Cl.O.O (stereo not given)", "system.name": "RAW-Dual (murine macrophage reporter line)", "classification": "FALSE"}
{"compound": "NC(=S)c1cc2ccc(O)cc2oc1=O", "system.name": "RAW-Dual (murine macrophage reporter line)", "classification": "TRUE"}
{"compound": "Cc1cc(CNC(=O)CCc2ccc(C(F)(F)F)cc2)c(C)o1", "system.name": "RAW-Dual (murine macrophage reporter line)", "classification": "TRUE"}
{"compound": "Clc1ccc(Nc2nc3nonc3nc2NC2C3CC4CC(C3)CC2C4)cc1 (stereo not given)", "system.name": "RAW-Dual (murine macrophage reporter line)", "classification": "TRUE"}
{"compound": "CCOc1ccc2nc(S(N)(=O)=O)sc2c1", "system.name": "RAW-Dual (murine macrophage reporter line)", "classification": "TRUE"}
{"compound": "Cc1ccc(C(C)C)c(Oc2ccccc2NC(=O)c2cc(I)cc(I)c2O)c1", "system.name": "RAW-Dual (murine macrophage reporter line)", "classification": "TRUE"}
{"compound": "CN1CCN(c2nc3c(=O)[nH]cnc3n2C2OC(CO)C(O)C2O)CC1 (stereo not given)", "system.name": "RAW-Dual (murine macrophage reporter line)", "classification": "TRUE"}
{"compound": "CCOC(=O)C1=C(C)N(c2ccc(OC)cc2)C(=O)C1=Cc1ccc(C(=O)O)cc1", "system.name": "RAW-Dual (murine macrophage reporter line)", "classification": "TRUE"}
{"compound": "Cc1nnsc1C(=O)Nc1ccccc1C(F)(F)F", "system.name": "RAW-Dual (murine macrophage reporter line)", "classification": "TRUE"}
{"compound": "NC(=NOC(=O)C(c1ccccc1)C1CCCC1)c1ccccn1 (stereo not given)", "system.name": "RAW-Dual (murine macrophage reporter line)", "classification": "TRUE"}
{"compound": "COc1cc2c(cc1OC)CC(=O)N(CCCN(C)C[C@H]1Cc3cc(OC)c(OC)cc31)CC2.Cl", "system.name": "RAW-Dual (murine macrophage reporter line)", "classification": "TRUE"}
{"compound": "CCOc1ccc(C=Nc2cccc3ncccc23)cc1", "system.name": "RAW-Dual (murine macrophage reporter line)", "classification": "TRUE"}
{"compound": "Cc1cnc2c(c1NCCCO)c(=O)n(C)c(=O)n2C", "system.name": "RAW-Dual (murine macrophage reporter line)", "classification": "TRUE"}
{"compound": "Cc1cc(C)c(-c2csc(NC(=O)C=Cc3cccs3)n2)c(C)c1", "system.name": "RAW-Dual (murine macrophage reporter line)", "classification": "TRUE"}
{"compound": "Cc1cc(C(=O)NCc2sc(-c3ccccc3Cl)nc2C)c(C)o1", "system.name": "RAW-Dual (murine macrophage reporter line)", "classification": "TRUE"}
{"compound": "COCC(=O)Nc1c(C(=O)Nc2ccc(OC(F)(F)F)cc2)oc2ccccc12", "system.name": "RAW-Dual (murine macrophage reporter line)", "classification": "TRUE"}

The origin of these recorded values is the supplement of paper PMC10646978.
